Source listed as paper PMC4000408.

assay: clinical; details: human, in vivo, 10 mg

{"columns": ["compound", "AUC(0-inf), ng·h/mL"],
 "data": [
  ["Nc1cccc2c1CN(C1CCC(=O)NC1=O)C2=O (stereo not shown) [Lenalidomide]", 475]
]}

###

test: Study 2, Part 2: lenalidomide-temsirolimus pharmacokinetic interaction, open-label crossover in healthy subjects; type: in vivo, human; conditions: human; lenalidomide 25 mg + temsirolimus 25 mg IV (n = 11), plasma; median (range)

{"columns": ["compound", "units.of.measure", "Tmax"],
 "data": [
  ["Nc1cccc2c1CN(C1CCC(=O)NC1=O)C2=O (stereo not shown) [Lenalidomide]", "h", 1]
]}
